System: Plutella xylostella
test: Insecticidal activity against Plutella xylostella (diamondback moth) grown on compound pre-treated fresh cabbage leaves assessed as insect mortality at 25 mg/kg measured 3 days post compound treatment by leaf-dip method
Assay type: functional
measurement setup: Plutella xylostella
Below: a set of entries, each annotated with reported mortality at 25 mg/kg.
Field format: number, assumed %, no unit text.

| compound | assay target | units of measure | mortality at 25 mg/kg |
| --- | --- | --- | --- |
| COC(Nc1c([S+](C)[O-])c(C#N)nn1-c1c(Cl)cc(C(F)(F)F)cc1Cl)C(Cl)(Cl)Cl (centres undefined) | Plutella xylostella | % | 100 |
| C[S+]([O-])c1c(C#N)nn(-c2c(Cl)cc(C(F)(F)F)cc2Cl)c1NC(OCCCl)C(Cl)(Cl)Cl (stereo in doubt; 7e-2) | Plutella xylostella | % | 100 |
| CCCOC(Nc1c([S+]([O-])CC)c(C#N)nn1-c1c(Cl)cc(C(F)(F)F)cc1Cl)C(Cl)(Cl)Cl (centres undefined) | Plutella xylostella | % | 87 |
| CCSc1c(C#N)nn(-c2c(Cl)cc(C(F)(F)F)cc2Cl)c1NC(OCCCl)C(Cl)(Cl)Cl (centres undefined) | Plutella xylostella | % | 43 |

Q) I have this compound here, CCOC(Nc1c(SC)c(C#N)nn1-c1c(Cl)cc(C(F)(F)F)cc1Cl)C(Cl)(Cl)Cl (centres undefined) , and I need its recorded mortality at 25 mg/kg.
A) 84

Q) Here is the next compound: CCOC(Nc1c([S+]([O-])CC)c(C#N)nn1-c1c(Cl)cc(C(F)(F)F)cc1Cl)C(Cl)(Cl)Cl (centres undefined)
A) 100

Q) Here is the next compound: CSc1c(C#N)nn(-c2c(Cl)cc(C(F)(F)F)cc2Cl)c1NC(OCCCl)C(Cl)(Cl)Cl (centres undefined)
A) 100

Q) Here is the next compound: CCOC(Nc1c([S+](C)[O-])c(C#N)nn1-c1c(Cl)cc(C(F)(F)F)cc1Cl)C(Cl)(Cl)Cl (centres undefined)
A) 100

Q) Here is the next compound: CCCOC(Nc1c(SCC)c(C#N)nn1-c1c(Cl)cc(C(F)(F)F)cc1Cl)C(Cl)(Cl)Cl (centres undefined)
A) 58
